Cited source for all entries: patent US20240117030A1

Measured on: human IL-13 (human, UniProt P35225 35-146)
Sequence (P35225 35-146 limits assumed, form in doubt): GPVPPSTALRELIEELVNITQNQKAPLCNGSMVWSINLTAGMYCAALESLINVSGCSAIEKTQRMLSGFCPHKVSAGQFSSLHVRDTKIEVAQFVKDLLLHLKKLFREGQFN
Test name: cell-based or functional assay
Result type: pSTAT6: Fold bioactivity relative to IL13-1307 (fold)
Could you give me the number in fold? Just the number is fine.

Check out these entries, answers already filled in.
IL13-1338 (antibody, IgG1, V domains shown) VH: EVQLVESGGGLVQPGGSLRLSCAASGFTFSSYAMSWVRQAPGKGLEWVASISSGDTTYYPDSVKGRFTISRDNAKNSLYLQMNSLRAEDTAVYYCARNEGYYFGLTLWGQGTLVTVSS VL: DIQMTQSPSSLSASVGDRVTITCKASESVDHSGSSLMHWYQQKPGKAPKLLIYRASNLESGVPSRFSGSGSGTDFTLTISSLQPEDFATYYCQQSNEDPWTFGGGTKVEIK    1.6
IL13-1308 (antibody, IgG1, V domains shown) VH: EVQLVESGGGLVQPGGSLRLSCAASGFTFSSYAMSWVRQAPGKGLEWVASISSGDTTYYPDSVKGRFTISRDNAKNSLYLQMNSLRAEDTAVYYCARLDGYYFGFPYWGQGTLVTVSS VL: DIQMTQSPSSLSASVGDRVTITCKASESVDHFGWSLVHWYQQKPGKAPKLLIYRASNLESGVPSRFSGSGSGTDFTLTISSLQPEDFATYYCQQSNEDPWTFGGGTKVEIKR    3.3
IL13-1307 (antibody, IgG1, V domains shown) VH: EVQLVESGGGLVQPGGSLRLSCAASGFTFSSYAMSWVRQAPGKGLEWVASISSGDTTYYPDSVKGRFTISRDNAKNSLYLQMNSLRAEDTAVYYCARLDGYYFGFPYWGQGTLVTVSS VL: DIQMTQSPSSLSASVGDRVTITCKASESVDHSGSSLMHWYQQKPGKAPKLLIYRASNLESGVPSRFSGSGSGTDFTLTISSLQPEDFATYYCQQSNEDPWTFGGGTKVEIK    1

Consider now this further binder.
Return the recorded pSTAT6: Fold bioactivity relative to IL13-1307 value; entry: IL13-0001 (antibody, human IgG1, kappa, V domains shown, also called IL13433-0001; 1RVHC9-VLA4) VH: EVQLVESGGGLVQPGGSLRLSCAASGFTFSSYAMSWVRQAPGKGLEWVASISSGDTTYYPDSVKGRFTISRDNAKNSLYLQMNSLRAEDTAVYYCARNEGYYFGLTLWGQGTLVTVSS VL: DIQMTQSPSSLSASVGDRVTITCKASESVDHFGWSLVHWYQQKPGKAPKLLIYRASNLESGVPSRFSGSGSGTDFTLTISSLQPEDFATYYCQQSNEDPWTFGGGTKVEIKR
1.5
